# Experimental Target: Human IL17RA protein (human, UniProt Q96F46 33-320)
# Protocol Description: SPR
Ends that are not written are not given here.
Endpoint: pKd
Note: pKd values are expressed as the negative base-10 logarithm of concentration in M.

Q: Read the entry ASPVIYHL-NH2 [AL-8(0)] and write its reported pKd.
Ans: 7.08
